- measurement_target: Chemerin-like receptor 1 (Homo sapiens)
- Sequence (Q99788 whole entry): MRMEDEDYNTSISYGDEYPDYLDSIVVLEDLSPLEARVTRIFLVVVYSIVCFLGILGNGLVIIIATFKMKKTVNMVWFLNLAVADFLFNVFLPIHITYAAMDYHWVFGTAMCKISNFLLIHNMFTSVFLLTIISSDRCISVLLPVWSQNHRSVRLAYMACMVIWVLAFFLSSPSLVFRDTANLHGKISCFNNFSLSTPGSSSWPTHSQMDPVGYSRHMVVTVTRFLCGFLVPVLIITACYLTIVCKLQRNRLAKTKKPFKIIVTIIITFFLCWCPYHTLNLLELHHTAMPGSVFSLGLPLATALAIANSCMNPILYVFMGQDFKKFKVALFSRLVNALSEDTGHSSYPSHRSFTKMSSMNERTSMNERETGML
- assay_overview: Displacement of [125I]-chemerin from ChemR23 (unknown origin) transfected in mouse BaF3 cells after 3 hrs by scintillation counting method
pIC50: −log10 of the molar value.
Below, each entry is listed with its recorded pIC50.

Answered examples (3):
Fill in: Chemerin-like receptor 1 (Homo sapiens) pIC50 for "Cc1cccc(C)c1N1C[C@@](CN(C)C)(C(=O)Nc2cc(C#N)cc(C(F)(F)F)c2)[C@H](C)C1=O" = ≥ 7.52

// compound Cc1cccc(C)c1N1CC(C(=O)Nc2cc(C(F)(F)F)cc(C(F)(F)F)c2)(C(C)N2CCCC2)CC1=O (centres undefined) , assay Chemerin-like receptor 1 (Homo sapiens), pIC50 value: 5.22 to 6.52

The compound Cc1cccc(C)c1N1CC(C(=O)Nc2cc(C(F)(F)F)cc(C(F)(F)F)c2)(C2CCCC2)CC1=O (centres undefined) , tested on Chemerin-like receptor 1 (Homo sapiens), showed pIC50 of ≥ 7.52

Here's the next entry for you.
Item: "Cc1cccc(C)c1N1C[C@@](CN2CCC(F)(F)CC2)(C(=O)Nc2cc(F)cc(C(F)(F)F)c2)[C@H](C)C1=O" | System: Chemerin-like receptor 1 (Homo sapiens) | pIC50: 6.52 to 7.52
